Attribution: the nanobody polyreactivity screen of Harvey et al. (2022)

Assay: yeast display, Sf9 membrane polyspecificity reagent, FACS + sequencing; frameworks hold sequencing errors
parameter.measured: polyreactivity (PSR sort gate)

QVQVVESGGGLVQAGGSLRISCAASGRILGNNVMGWYRQAPWKERDLVAAITSSGGRTYYADSVKGRFTISRDNAKNTVYLQMNSLKPVDTAVYYCAAERRYYGKFNYWGHGTQVTVSS | high polyreactivity
QVQLVESGGGLVQAGGSLRLSCAASGRIFIDNAMGWYRQAPGKERELVAAISWTGGRTYYADSVKGRFTISRDNAKKTVYLQMNSLKPEDPAVYYCAAKQYTRFGYYYWGQGSQVTVSS | high polyreactivity
QVQLVESGGGLVQAGGSLRLSCAASGSIFHYYAMGWYRQAPGKERELVAAISWSGGRTNYADSVKGRFTISRDNAKNTVYLQMNSLKPEDTAVYYCAAAERSYSGGGKIGKYYWGQGTQVTVSS | high polyreactivity
QVQLVESGGGLVQAGGSLRLSCAASGSTFVFYTMGWYRQAPGKEREFVASISGSGGSTYYADSVKGRFTISRDNAKNTVYLQMNSLKPEDTAVYYCAAGYPYYYWTPYYYWVQGTQVTVSS | high polyreactivity

Query sequence follows.
Q: Any idea what its polyreactivity (PSR sort gate) is? The sequence is QVQLVESGGGLVQAGGSLRLSCAASGRTFIRNVMGWYRQAPGKERELVAGITGGGNTYYADSVKGRFTISRDNAKNTVYLQMNSLKPEDTAVYECAVRYPSYGLSYVRYGYWGQVTQVTVSS
A: high polyreactivity

---

Assay: yeast display, Sf9 membrane polyspecificity reagent, FACS + sequencing; frameworks hold sequencing errors
parameter.measured: polyreactivity (PSR sort gate)

QVQLVESGGGLVQAGRSLRLSCAASGITLYNYAMGWYRQAPGKERELVAAISLSGGRTYYADSVKGRFTISRDNAKNTVYLQMYSLKPEDTAVYYCAADWLNSDPYNYWGQGTQVTVSS | low polyreactivity
QVQLVESGGGLVQAGGSLRLSCAASGRILYGYVMGWYRQAPGKERELVAAISWSGARTYYADSVKGRFTISRDNAKNTVYLQMNSLKPEDTAVYYCAARVPSWKYDYWGQGTQVTVSS | high polyreactivity
QVQLVESGGGLVQAGGSLRLSCAASGSTFINYAMGWYRQAPGKERELVAAYADSVKGRFTISRDNAKNTVYLQMNRLKPEDTAVYDCNAVTGECGQGTQVTVSS | low polyreactivity
QVQLVESGGGLVQAGGSLRLSCAASGFTFSHNPMGWYRQAPGKERELVATITRGGGNTYYADSVKGRCTISRDNAKNTVYLQMNSLKPEDTAVYYCSAERYKRMDYWGQGTQVTVSS | low polyreactivity

Q: Any idea what its polyreactivity (PSR sort gate) is? The sequence is QVQLQESGGGLVQAGGSLRLSCAASGTIFCLWAMGWYCQAPGKERELVASISSGGTTYHADSVKGRFTISRDNAKNTVYLQMNSLKPEDTAVYYSAAFYVATAKLGYWGQGSQVTVSS
A: low polyreactivity

Q: Next record, please: QVQLVESGGGLVQAGGSLRLSCAASGGTFTWYAMGWYRQAPGKERELVAAISSDGSTYYADSVKGRFTISRDNAKNTVYLQMNSLKPEDTAVYYSAAYSSWGGFDYWGQGTQVTVSS
A: low polyreactivity

Q: Next record, please: QVQLVESGGGLVQAGGSLRLSCAASGRIFISYTMGWDRQAPGKERELVAGIDSSGTSTYYADSVKGRFTISRDNAKNTVYLQMNSLKPEDTAVYYCNVDGNWKDTSTELDYWGQGTQVTVSS
A: low polyreactivity
